conditions: pH 7.4, LogD, pH 7.4 (mean / reported value)
Where a SMILES comes first, the peptide text is derived from it.
measured attribute: logD
Reply: number alone, nothing else.

| compound | logD |
| --- | --- |
| CC(C)C[C@@H]1NC(=O)[C@H](CC(=O)O)NC(=O)CNC(=O)[C@H](CCCNC(=N)N)NC(=O)[C@H](Cc2ccccc2)NC(=O)[C@@H]2CCCN2C(=O)[C@@H]2CCCN2C(=O)[C@H](CC(C)C)NC(=O)[C@H](C)NC1=O [OM1186] (cyclo(RGDLALPPF)) | -0.19 |

Read the next record carefully.
Task: State, in one line, measured logD of C[C@@H]1NC(=O)[C@H](C)NC(=O)[C@@H](C)N(C)C(=O)[C@H](C)N(C)C(=O)[C@H](C)NC(=O)[C@H](C)NC1=O [1,6CHA, *aAAAA*A]
Result: -0.97

###

Reported Permeability, replicate 1 values follow for various compounds
conditions: PAMPA, pH 7.4
Where a SMILES comes first, the peptide text is derived from it.

// known answers, use as guide
| compound | Permeability, replicate 1 |
| --- | --- |
| CCCCCCOC(=O)N=C(NCCC[C@@H]1NC(=O)[C@H](C(C)C)N(C)C(=O)[C@@H](Cc2ccccc2)NC(=O)[C@H](CC(=O)OC)NC(=O)CNC1=O)NC(=O)OCCCCCC [Cil.-P, c(f*VR(Hoc)2 GD)] | −8.1 Log10[10^−6 cm/s] |
| CC(C)C[C@@H]1NC(=O)CNC(=O)[C@@H]2CCCN2C(=O)[C@@H]2CCCN2C(=O)[C@H](CC(C)C)NC(=O)[C@H](CC(=O)O)NC(=O)CNC(=O)[C@H](CCCNC(=N)N)NC1=O [FRX068] (cyclo(RGDLPPGL)) | <−7 Log10[10^−6 cm/s] |

Read the next record carefully.
Task: State, in one line, measured Permeability, replicate 1 of CC(C)C[C@@H]1NC(=O)[C@H](CC(=O)O)NC(=O)CNC(=O)[C@H](CCCNC(=N)N)NC(=O)[C@H](Cc2ccccc2)NC(=O)[C@@H]2CCCN2C(=O)[C@@H]2CCCN2C(=O)[C@H](CC(C)C)NC(=O)[C@H](C)NC1=O [OM1186] (cyclo(RGDLALPPF))
Result: <−7 Log10[10^−6 cm/s]

###

Reported Papp B→A values follow for various compounds
conditions: Caco-2, Papp (BA), replicate 3
Where a SMILES comes first, the peptide text is derived from it. [ ]: non-standard residue; d: D form. Arg(ω,ω'-(C6H13OCO)2) = CCCCCCOC(=O)N=C(NCCC[C@H](N)C(=O)O)NC(=O)OCCCCCC
# output: bare number, implied unit ×10⁻⁶ cm/s

// known answers, use as guide
| compound | reported |
| --- | --- |
| CCCCCCOC(=O)N=C(NCCC[C@@H]1NC(=O)[C@H](Cc2ccccc2)NC(=O)[C@@H]2CCCN2C(=O)[C@@H]2CCCN2C(=O)[C@H](CC(C)C)NC(=O)[C@H](C)NC(=O)[C@H](CC(C)C)NC(=O)[C@H](CC(=O)OC)NC(=O)CNC1=O)NC(=O)OCCCCCC [AR372] (cyclo(ALPPF[Arg(ω,ω'-(C6H13OCO)2)]GD(OMe)L)) | 0.3 |
| CC(C)C[C@@H]1NC(=O)CNC(=O)[C@@H]2CCCN2C(=O)[C@@H]2CCCN2C(=O)[C@H](CC(C)C)NC(=O)[C@H](CC(=O)O)NC(=O)CNC(=O)[C@H](CCCNC(=N)N)NC1=O [FRX068] (cyclo(RGDLPPGL)) | 0.3 |
| CC(C)C[C@@H]1NC(=O)[C@H](CC(=O)O)NC(=O)CNC(=O)[C@H](CCCNC(=N)N)NC(=O)[C@H](Cc2ccccc2)NC(=O)[C@@H]2CCCN2C(=O)[C@@H]2CCCN2C(=O)[C@H](CC(C)C)NC(=O)[C@H](C)NC1=O [OM1186] (cyclo(RGDLALPPF)) | 0.3 |

Read the next record carefully.
Task: State, in one line, measured Papp B→A of `C[C@@H]1NC(=O)[C@H](C)NC(=O)[C@@H](C)N(C)C(=O)[C@H](C)N(C)C(=O)[C@H](C)NC(=O)[C@H](C)NC1=O`
Result: 0.2
